# System: PVA-A
# Run Description: Substrate specificity of PVA-oxidizing activity of PVA-A
# Format: biochemical, Pseudomonas sp. VT1B strain (NBRC110478)
# Condition Info: substrate 1% (v/v) or saturated; activity against PVA = 100%
# Method: To 0.5 mL of a substrate solution prepared by dissolving PVA (Reagent grade polyvinyl alcohol, polymerization degree: 2,000, Nacalai Tesque Inc., Kyoto, Japan) into 100 mM sodium phosphate buffer (pH 7.0) to give a concentration of 2% (w/v), 15 µL of 2% (w/v) of sodium azide solution was added, and then 0.5 mL of an enzyme solution is further added and reacted with shaking at 27° C. for 60 min. […]
Readout: Relative activity (%) PVA-A

1) CCCCCCO :: 0
2) CC(O)CC(C)O (stereo not drawn) :: 0
3) CCCCCO :: 0
4) CC(C)O :: 0
5) CCCC(O)CCC :: 21
6) CCCCCCC(O)CCC (stereo not drawn) :: 3
7) CCCO :: 0
8) CCCCC(C)O (stereo not drawn) :: 5
9) CCCC(C)O (stereo not drawn) :: 2
10) CCCCCCC(C)O (stereo not drawn) :: 3
11) CC(C)(C)O :: 0
12) CCCCCCCO :: 0
13) CCCCCCCCCCO :: 0
14) CCO :: 0
15) CO :: 0

* * *

# System: PVA-B
# Run Description: Substrate specificity of PVA-oxidizing activity of PVA-B
# Format: biochemical, Pseudomonas sp. VT1B strain (NBRC110478)
# Condition Info: substrate 1% (v/v) or saturated; activity against PVA = 100%
Mark 1.0 for reported Relative activity (%) PVA-B of 1% or greater; mark 0.0 for anything smaller.

1) CCCC(O)CCC :: 1.0
2) CCCCCCCCCCO :: 0.0
3) CCCC(C)O (stereo not drawn) :: 1.0
4) CO :: 0.0
5) CCCCC(C)O (stereo not drawn) :: 1.0
6) CCCCCO :: 0.0
7) CCCO :: 0.0
8) CC(O)CC(C)O (stereo not drawn) :: 0.0
9) CCCCCCC(C)O (stereo not drawn) :: 1.0
10) CCO :: 0.0
